Target: IDH1 R132H (Homo sapiens, UniProt O75874, R132H)
Sequence (O75874 whole entry R132H): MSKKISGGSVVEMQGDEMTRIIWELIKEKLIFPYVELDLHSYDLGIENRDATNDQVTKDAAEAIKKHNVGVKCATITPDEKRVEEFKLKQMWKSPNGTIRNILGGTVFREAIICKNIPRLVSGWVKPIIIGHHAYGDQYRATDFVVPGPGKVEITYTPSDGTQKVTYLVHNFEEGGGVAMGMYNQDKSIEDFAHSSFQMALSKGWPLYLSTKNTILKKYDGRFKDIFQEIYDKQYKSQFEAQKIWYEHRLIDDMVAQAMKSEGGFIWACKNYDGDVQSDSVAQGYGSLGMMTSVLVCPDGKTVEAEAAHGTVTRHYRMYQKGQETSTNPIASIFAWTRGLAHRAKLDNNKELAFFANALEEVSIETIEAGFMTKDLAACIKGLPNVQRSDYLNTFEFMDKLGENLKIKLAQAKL
Assay: IDH1 R132H enzymatic assay (NADPH depletion coupled to diaphorase/resazurin)
Format: biochemical
Conditions: IDH1 R132H enzymatic inhibition, IC50 class
Please provide measured IC50 for the entries that follow.

{"COMPOUND STRUCTURE STRING": "CCc1cccc(CC)c1-n1c(C)c(C(=O)NCCCN)cc(-c2nc(-c3ccc(Cl)cc3)cs2)c1=O", "IC50": "1000 to 5000 nM"}
{"COMPOUND STRUCTURE STRING": "COc1ccc(OC)c(-n2c3c(cc(-c4nc(-c5ccc(Cl)cc5)cs4)c2=O)C(=O)CCC3)c1", "IC50": "1000 to 5000 nM"}
{"COMPOUND STRUCTURE STRING": "CCc1cccc(CC)c1-n1c(C(C)C)c(C(=O)N2CCNCC2)cc(-c2nc(-c3ccc(Cl)cc3)cs2)c1=O", "IC50": "300 to 1000 nM"}

From here, focus on the item given below.
Task: I'd like to know its IC50. The compound in question is `CCOc1cccc(Cl)c1-n1c(C=C(C)C)c(C(=O)N2CCNCC2)cc(-c2nc(-c3ccc(Cl)cc3)cs2)c1=O`
Output: < 300 nM
